This collection of values is drawn from the kinase profiling compilation of Christmann-Franck et al. (2016).

biological target: UniProtKB Q9Y243
Sequence (Q9Y243 whole entry, looked up): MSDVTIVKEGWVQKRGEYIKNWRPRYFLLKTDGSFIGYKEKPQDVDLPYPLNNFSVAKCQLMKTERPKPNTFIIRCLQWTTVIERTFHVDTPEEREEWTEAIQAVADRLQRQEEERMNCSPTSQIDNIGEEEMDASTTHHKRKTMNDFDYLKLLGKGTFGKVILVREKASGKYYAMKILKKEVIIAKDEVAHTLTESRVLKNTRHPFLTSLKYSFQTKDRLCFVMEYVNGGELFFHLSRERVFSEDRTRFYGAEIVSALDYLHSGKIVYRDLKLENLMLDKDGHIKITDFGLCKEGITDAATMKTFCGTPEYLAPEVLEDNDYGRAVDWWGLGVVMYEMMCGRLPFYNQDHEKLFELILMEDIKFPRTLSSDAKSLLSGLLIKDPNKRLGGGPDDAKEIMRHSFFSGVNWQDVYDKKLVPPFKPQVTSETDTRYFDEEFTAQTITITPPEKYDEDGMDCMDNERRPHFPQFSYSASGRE
QUANTITY_NAME: IC50

Entry `CN(C)C/C=C/C(=O)Nc1cccc(C(=O)Nc2ccc(Nc3nccc(/C(C#N)=C4\Nc5ccccc5S4)n3)cc2)c1` ; IC50 = > 370 nM

----------
target: CHEK2 (human); assay: KINOMEscan competition binding; conditions: compound 1.0 µM
QUANTITY_NAME: kinase still bound, per cent of control (%)
One number for each entry, in %.

CN(C)C/C=C/C(=O)Nc1cccc(C(=O)Nc2ccc(Nc3nccc(-c4c(-c5ccccc5)nn5ccccc45)n3)cc2)c1 :: 100
CN(C)C/C=C/C(=O)Nc1cccc(C(=O)Nc2ccc(Nc3nccc(/C(C#N)=C4\Nc5ccccc5S4)n3)cc2)c1 :: 100
Cc1cc(NC(=O)c2cccc(NC(=O)/C=C/CN(C)C)c2)ccc1Nc1nccc(-c2cccnc2)n1 :: 95

Moving on to another molecule below.
Please fill in: kinase still bound, per cent of control reported for `CN(C)C/C=C/C(=O)Nc1cccc(C(=O)Nc2ccc(Nc3nccc(-c4cccnc4)n3)cc2)c1` = 100
